Catalogue of EC50 (nM), OVCAR 5 cells (cAMP) values
experimental.target: T1, RXFP1 receptor (endogenous, on OVCAR5 cells) (UniProt Q9HBX9 1-757, limits assumed)
T1 sequence (looked up): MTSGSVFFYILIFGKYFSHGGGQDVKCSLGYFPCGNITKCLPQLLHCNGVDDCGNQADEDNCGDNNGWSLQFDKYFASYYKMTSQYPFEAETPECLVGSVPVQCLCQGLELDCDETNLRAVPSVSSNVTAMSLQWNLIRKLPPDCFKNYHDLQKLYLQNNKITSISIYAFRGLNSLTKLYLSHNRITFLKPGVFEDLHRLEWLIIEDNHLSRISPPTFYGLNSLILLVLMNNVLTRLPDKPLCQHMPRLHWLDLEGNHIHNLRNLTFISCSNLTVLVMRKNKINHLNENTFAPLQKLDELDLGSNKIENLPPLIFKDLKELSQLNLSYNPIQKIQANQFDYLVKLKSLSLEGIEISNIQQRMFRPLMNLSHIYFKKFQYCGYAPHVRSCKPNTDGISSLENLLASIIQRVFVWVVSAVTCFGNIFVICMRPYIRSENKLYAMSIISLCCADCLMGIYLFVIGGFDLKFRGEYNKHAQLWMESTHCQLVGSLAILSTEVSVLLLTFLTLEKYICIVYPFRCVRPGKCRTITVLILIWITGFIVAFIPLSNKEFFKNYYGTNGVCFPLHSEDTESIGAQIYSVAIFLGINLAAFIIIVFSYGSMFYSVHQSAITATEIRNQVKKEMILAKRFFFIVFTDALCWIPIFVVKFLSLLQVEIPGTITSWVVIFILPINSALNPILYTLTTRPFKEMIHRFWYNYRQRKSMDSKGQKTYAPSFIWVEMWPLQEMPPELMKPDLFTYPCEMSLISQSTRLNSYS
experiment.description: cell-based or functional assay
Starred links: 1 amine or outer side, 2 acyl side, 3 side chain; linkers in the order of their positions; H or OH if unused. Non-standard residues stand in square brackets, D forms with d. Groups on a side chain read outwards from the residue. *: point of attachment. TTDS = 4-[3-[2-[2-(3-aminopropoxy)ethoxy]ethoxy]propylamino]-4-oxo-butanoyl; γGlu = O=C(O)[C@H](CCC(=O)[*:2])N[*:1]; Stearoyl = CCCCCCCCCCCCCCCCCC(=O)*; Palmitoyl = CCCCCCCCCCCCCCCC(=O)*; Myristoyl = CCCCCCCCCCCCCC(=O)*; αMeK = C[C@](N)(CCCCN)C(=O)O; Aib = CC(C)(N)C(=O)O
API: value field is a number in nM; no unit string.

Some entries whose results are on file:
binder="Ac-LEGREKVRAK(Ac)I[Aib][Aib]EGK([TTDS-TTDS-TTDS-γGlu-γGlu-γGlu-Palmitoyl])SRWS[Aib]RKK(Ac)-NH2 [peptide of SEQ ID NO: 64]" result_units=nM value=0.52
binder="LEGREKVRAXIXXEGXSTFSXRAX (Ac-L-E-G-R-E-K-V-R-A-K(Ac)-I-Aib-Aib-E-G-K(PEG2DGA-PEG2DGA-PEG2DGA-gE-gE-gE-Stea)-S-T-F-S-Mly-R-A-K(Ac)-NH2) [peptide of SEQ ID NO: 32]" result_units=nM value=0.1
binder="Ac-LEGREKVRAK(Ac)I[Aib]IEGK([TTDS-TTDS-TTDS-γGlu-γGlu-γGlu-Palmitoyl])STFS[αMeK]RAK(Ac)-NH2 [peptide of SEQ ID NO: 84]" result_units=nM value=0.1
binder="Ac-LEGREKVRAQI[Aib][Aib]EGK([TTDS-TTDS-TTDS-γGlu-γGlu-γGlu-Palmitoyl])STFS[αMeK]RAK(Ac)-NH2 [peptide of SEQ ID NO: 48]" result_units=nM value=0.45
binder="Ac-LEGREKVRAK(Ac)I[Aib][Aib]EGK([TTDS-TTDS-TTDS-γGlu-γGlu-γGlu-Stearoyl])STWS[Aib]RKK(Ac)-NH2 [peptide of SEQ ID NO: 20]" result_units=nM value=0.15
binder="Ac-LEGREKVRAK(Ac)I[Aib]IEGK([TTDS-TTDS-TTDS-TTDS-γGlu-γGlu-γGlu-Palmitoyl])STWS[Aib]RKK(Ac)-NH2 [peptide of SEQ ID NO: 74]" result_units=nM value=0.54
binder="Ac-LEGREKVRAK(Ac)I[Aib][Aib]EGK([TTDS-TTDS-TTDS-γGlu-γGlu-γGlu-Myristoyl])STFS[αMeK]RAK-NH2 [peptide of SEQ ID NO: 96]" result_units=nM value=0.88
binder="Ac-LEGREKVRAK(Ac)I[Aib][Aib]EGK([TTDS-TTDS-TTDS-γGlu-γGlu-γGlu-Palmitoyl])STF[dS]KRAK(Ac)-NH2 [peptide of SEQ ID NO: 14]" result_units=nM value=3.2

Please look at the following binder next.
Return the recorded EC50 (nM), OVCAR 5 cells (cAMP) value; entry: Ac-LEGREKVRAK(Ac)I[Aib][Aib]EGK([TTDS-TTDS-TTDS-γGlu-γGlu-γGlu-Myristoyl])STFS[αMeK]RAK(Ac)-NH2 [peptide of SEQ ID NO: 95]
1.8
